Sourced from paper PMC9911399

MEASURED_TARGET: T1, RBFOX1 RRM RbFoxmut (Fox-RRM*) (Homo sapiens, UniProt Q9NWB1 109-208, R118D;E147R;N151S;E152T)
T1 sequence: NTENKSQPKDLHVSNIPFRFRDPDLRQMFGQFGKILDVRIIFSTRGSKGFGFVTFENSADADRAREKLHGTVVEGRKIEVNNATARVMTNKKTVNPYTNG
ASSAY_OVERVIEW: EMSA; HiTS-Eq, 1 nM pool, 10 min; buffer printed only for the single-RNA assays: 10 mM Tris pH 7.5, 150 mM NaCl, 3.4 mM EDTA, 0.001% NP-40, 30 C
COND: tags: His6 N-terminal (pET28a); label: 5' 32P
Over roughly 16,000 sequences, “ka relative to ugcaugu” has its median near 0.096; the highest 2% begin near 0.35. This excerpt belongs to a sample that is enriched for the highest values.
VALUE_KIND: binding signal

Could you share which binding signal value was measured for GCCUUAA (DNA:RNA) RNA: GGGAGACCGGAAUUCAGAUUGUCCGCCUUAAUUAAAUCCCGUCGUAGCCACCA DNA 1: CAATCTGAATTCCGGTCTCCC DNA 2: TGGTGGCTACGACGGGATT ?
0.0981 KA relative to UGCAUGU

Could you share which binding signal value was measured for AAAAUUC (DNA:RNA) RNA: GGGAGACCGGAAUUCAGAUUGUCCAAAAUUCUUAAAUCCCGUCGUAGCCACCA DNA 1: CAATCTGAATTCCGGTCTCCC DNA 2: TGGTGGCTACGACGGGATT ?
0.0842 KA relative to UGCAUGU

Could you share which binding signal value was measured for CAUACAC (DNA:RNA) RNA: GGGAGACCGGAAUUCAGAUUGUCCCAUACACUUAAAUCCCGUCGUAGCCACCA DNA 1: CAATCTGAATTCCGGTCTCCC DNA 2: TGGTGGCTACGACGGGATT ?
0.0927 KA relative to UGCAUGU

Could you share which binding signal value was measured for GCCUCGU (DNA:RNA) RNA: GGGAGACCGGAAUUCAGAUUGUCCGCCUCGUUUAAAUCCCGUCGUAGCCACCA DNA 1: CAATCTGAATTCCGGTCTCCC DNA 2: TGGTGGCTACGACGGGATT ?
0.224 KA relative to UGCAUGU
